Target: TCR / mCD1d-glycolipid complex (Mus musculus)
Sequence (P11609 19-297): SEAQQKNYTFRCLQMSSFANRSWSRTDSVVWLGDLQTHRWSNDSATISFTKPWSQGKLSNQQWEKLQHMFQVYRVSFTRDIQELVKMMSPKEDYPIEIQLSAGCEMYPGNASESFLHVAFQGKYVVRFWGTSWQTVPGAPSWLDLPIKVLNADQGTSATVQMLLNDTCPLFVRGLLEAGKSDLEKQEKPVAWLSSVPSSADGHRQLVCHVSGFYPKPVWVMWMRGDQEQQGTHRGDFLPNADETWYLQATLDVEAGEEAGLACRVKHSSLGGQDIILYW
Sequence (P01887 21-119 partner): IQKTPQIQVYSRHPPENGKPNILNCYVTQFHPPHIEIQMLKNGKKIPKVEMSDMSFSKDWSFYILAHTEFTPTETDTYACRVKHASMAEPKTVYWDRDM
Method Summary: Surface plasmon resonance: TCR binding to mCD1d-glycolipid complexes
Condition: SPR, 25° C., Langmuir 1:1 model; read-out: KD
Readout Type: pKd
Entry type: numeric. Quantity: pKd, the -log10 of concentration in molar units.

# query: pKd | item CCCCCCCCCCCCCCCCCCCCCCCCCC(=O)NC(COC1OC(COC(=O)Nc2ccncc2)C(O)C(O)C1O)C(O)C(O)CCCCCCCCCCCCCC (stereo not shown) | system: TCR / mCD1d-glycolipid complex (Mus musculus)
7.48
